# System: PC-3M
# measurement-protocol: MTT assay, antiproliferative activity
# Format: cell-based
# assay-setup: Homo sapiens, 48 h drug exposure, mean ± SD
Answer each item with its documented pIC50.
Entry type: numeric. Quantity: pIC50, the -log10 of concentration in molar units.

Which pIC50 value belongs to COc1ccc(-c2oc3c(CC=C(C)C)c(O)cc(O)c3c(=O)c2O)cc1 [ICT, Icaritin] ?
4.20

Param item: COc1ccc(-c2oc3c(CC=C(C)C)c(OC(=O)CCCC[P+](c4ccccc4)(c4ccccc4)c4ccccc4)cc(O)c3c(=O)c2O)cc1 [Mito-ICT-1]
4.47

Param item: COc1ccc(-c2oc3c(CC=C(C)C)c(OC(=O)CCCCCCCC[P+](c4ccccc4)(c4ccccc4)c4ccccc4)cc(O)c3c(=O)c2O)cc1 [Mito-ICT-3]
4.69

Param item: O=c1[nH]cc(F)c(=O)[nH]1 [Compound 5-FU, 5-fluorouracil, reference compound]
4.23

Param item: COc1ccc(-c2oc3c(CC=C(C)C)c(OC(=O)CCCCCC[P+](c4ccccc4)(c4ccccc4)c4ccccc4)cc(O)c3c(=O)c2O)cc1 [Mito-ICT-2]
4.56

Param item: COc1ccc(-c2oc3c(CC=C(C)C)c(OC(=O)CCCCBr)cc(O)c3c(=O)c2O)cc1 [Compound 1]
4.35

Param item: COc1cccc2c1C(=O)c1c(O)c3c(c(O)c1C2=O)C[C@@](O)(C(=O)CO)C[C@@H]3O[C@H]1C[C@H](N)[C@H](O)[C@H](C)O1 [DOX, doxorubicin, reference compound]
6.62

Param item: CCCCC(=O)Oc1cc(O)c2c(=O)c(O)c(-c3ccc(OC)cc3)oc2c1CC=C(C)C [Compound 5]
4.22
